Examples of molecules with documented DC50 follow.
# TARGET_UNDER_TEST: BRAF V600E (Homo sapiens, UniProt P15056+Q96SW2, V600E)
# Construct: knock-in of the HiBiT tag to the endogenous BRAF V600E locus; host or cells: A375.10 (A375 clonal line, CRISPR HiBiT knock-in at the endogenous BRAF V600E locus)
# Sequence (P15056 whole entry V600E): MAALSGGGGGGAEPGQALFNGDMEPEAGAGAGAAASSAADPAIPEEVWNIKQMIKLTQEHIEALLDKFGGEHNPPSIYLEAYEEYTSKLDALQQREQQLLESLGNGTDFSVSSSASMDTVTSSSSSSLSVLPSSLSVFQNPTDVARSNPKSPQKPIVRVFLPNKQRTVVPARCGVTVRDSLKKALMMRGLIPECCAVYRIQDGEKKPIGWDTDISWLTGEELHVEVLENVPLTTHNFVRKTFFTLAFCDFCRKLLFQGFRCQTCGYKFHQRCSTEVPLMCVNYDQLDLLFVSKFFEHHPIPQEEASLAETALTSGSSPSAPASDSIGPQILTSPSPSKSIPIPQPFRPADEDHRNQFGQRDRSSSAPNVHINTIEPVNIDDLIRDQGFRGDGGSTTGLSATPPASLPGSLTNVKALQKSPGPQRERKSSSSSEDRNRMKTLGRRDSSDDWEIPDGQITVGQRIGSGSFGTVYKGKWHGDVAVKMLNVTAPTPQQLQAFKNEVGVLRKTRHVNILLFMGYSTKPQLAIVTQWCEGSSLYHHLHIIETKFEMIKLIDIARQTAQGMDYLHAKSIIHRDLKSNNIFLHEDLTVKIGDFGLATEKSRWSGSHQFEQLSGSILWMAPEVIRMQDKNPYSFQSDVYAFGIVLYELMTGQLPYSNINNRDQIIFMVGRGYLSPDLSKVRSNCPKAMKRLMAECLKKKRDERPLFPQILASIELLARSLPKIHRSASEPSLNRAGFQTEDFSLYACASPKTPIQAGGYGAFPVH
# Sequence (Q96SW2 whole entry): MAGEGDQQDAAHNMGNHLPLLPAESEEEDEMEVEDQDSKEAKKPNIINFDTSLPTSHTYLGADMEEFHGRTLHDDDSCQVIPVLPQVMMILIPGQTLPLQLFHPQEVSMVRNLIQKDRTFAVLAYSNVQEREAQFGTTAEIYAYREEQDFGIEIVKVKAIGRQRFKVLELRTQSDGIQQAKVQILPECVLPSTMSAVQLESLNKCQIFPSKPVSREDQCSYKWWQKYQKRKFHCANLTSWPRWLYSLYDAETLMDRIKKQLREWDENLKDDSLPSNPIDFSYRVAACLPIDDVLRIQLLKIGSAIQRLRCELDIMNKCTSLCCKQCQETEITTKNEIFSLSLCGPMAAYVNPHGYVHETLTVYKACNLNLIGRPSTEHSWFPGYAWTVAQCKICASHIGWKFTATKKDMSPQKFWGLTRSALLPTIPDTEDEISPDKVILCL
# Sequence (Q16531 whole entry partner): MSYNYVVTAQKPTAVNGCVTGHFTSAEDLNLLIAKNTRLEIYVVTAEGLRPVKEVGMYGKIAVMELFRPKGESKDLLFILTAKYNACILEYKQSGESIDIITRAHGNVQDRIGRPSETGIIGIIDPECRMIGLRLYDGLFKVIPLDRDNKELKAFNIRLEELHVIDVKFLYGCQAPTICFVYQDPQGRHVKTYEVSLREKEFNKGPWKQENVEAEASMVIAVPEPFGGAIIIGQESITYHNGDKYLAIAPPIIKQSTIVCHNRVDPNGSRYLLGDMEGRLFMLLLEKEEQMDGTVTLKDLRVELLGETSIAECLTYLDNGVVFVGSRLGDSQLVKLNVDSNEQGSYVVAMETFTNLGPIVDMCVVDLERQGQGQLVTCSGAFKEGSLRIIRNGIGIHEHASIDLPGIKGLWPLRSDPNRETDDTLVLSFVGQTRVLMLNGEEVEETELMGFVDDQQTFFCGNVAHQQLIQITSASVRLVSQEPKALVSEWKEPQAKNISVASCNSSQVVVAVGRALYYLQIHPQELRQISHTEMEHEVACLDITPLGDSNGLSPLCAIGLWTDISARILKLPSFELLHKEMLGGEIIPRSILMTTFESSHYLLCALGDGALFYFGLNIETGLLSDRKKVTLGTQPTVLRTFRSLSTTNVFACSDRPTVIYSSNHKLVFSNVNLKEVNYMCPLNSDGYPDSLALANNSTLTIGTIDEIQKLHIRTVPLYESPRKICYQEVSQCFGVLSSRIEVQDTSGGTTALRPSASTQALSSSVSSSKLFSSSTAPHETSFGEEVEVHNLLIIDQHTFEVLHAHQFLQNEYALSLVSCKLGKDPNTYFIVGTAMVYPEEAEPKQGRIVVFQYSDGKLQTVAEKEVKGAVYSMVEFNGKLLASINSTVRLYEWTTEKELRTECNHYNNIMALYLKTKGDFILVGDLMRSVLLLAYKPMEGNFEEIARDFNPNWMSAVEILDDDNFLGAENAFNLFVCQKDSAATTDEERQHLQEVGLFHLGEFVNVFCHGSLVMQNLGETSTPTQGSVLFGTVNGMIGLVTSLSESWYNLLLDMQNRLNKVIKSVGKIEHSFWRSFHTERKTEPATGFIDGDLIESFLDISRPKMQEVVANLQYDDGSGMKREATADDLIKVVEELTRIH
# PROTOCOL_DESCRIPTION: BRAF V600E HiBiT Degradation Assay
# Assay type: cell-based
# CONDITION_PARAMETERS: A375.10 cells, BRAF V600E, 6 hours; inflection point; read-out: HiBiT-Degradation A375.10 BRAF 6 hours IP

INSERT INTO measurements (molecule, target_under_test, reported_measurement) VALUES
  ('CO[C@H]1CCN(S(=O)(=O)Nc2ccc(F)c(Oc3ccc4ncn(C5CC6(CCN(C7CCC(c8cc9c(cc8F)c(N8CCC(=O)NC8=O)nn9C)CC7)CC6)C5)c(=O)c4c3)c2C#N)C1 (single isomer, unassigned) [Compound 103]', 'BRAF V600E (Homo sapiens, UniProt P15056+Q96SW2, V600E)', '< 1000 nM');

Okay, next one:
Name the reported DC50 value associated with the molecule `CCN(C)S(=O)(=O)Nc1ccc(F)c(Oc2ccc3ncn([C@H]4COC5(CCN(C6CC7(C6)CN(c6cc8c(cc6F)c(N6CCC(=O)NC6=O)nn8C)C7)CC5)C4)c(=O)c3c2)c1C#N`
< 1000 nM
